Consider the following binders; for each one, report its N (binding stoichiometry).
# EXPERIMENTAL_TARGET: T1, EphA2 ligand binding domain (EphA2 LBD), residues 28-200 (UniProt P29317 28-200)
# T1 construct: range 28-200; Expressed in E. coli; also called soluble EphA2 LBD; soluble monomeric EphA2 LBD
# T1 sequence (P29317 other isoform, or with tags, fused parts or gaps limits assumed, form in doubt): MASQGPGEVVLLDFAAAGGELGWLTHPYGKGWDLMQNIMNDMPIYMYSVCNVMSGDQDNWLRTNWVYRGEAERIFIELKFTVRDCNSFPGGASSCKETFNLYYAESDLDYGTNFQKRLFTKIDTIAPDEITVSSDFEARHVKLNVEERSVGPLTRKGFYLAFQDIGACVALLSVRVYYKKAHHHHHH
# METHOD_DESCRIPTION: ITC, soluble EphA2 LBD and peptide
Where no end group is shown, it is not given here. [ ]: non-standard residue; d: D form. The star is where a group is joined. Biotin = O=C1N[C@H]2[C@H](CS[C@H]2CCCCC(=O)*)N1; βAla = NCCC(=O)O; Cam = NC(=O)C*
I'd appreciate a reply containing only the number, no unit.

## Task So what does the record say about N (binding stoichiometry) for [βAla]WLAYPDSVPYGSGC (also: homodimer, disulfide at 15, other end not in the chain, C-terminally disulfide-linked homodimer made from monomer (9*); also called dimer (1); dimeric peptide (1)) [βA-WLA-YGSGC dimer (C-ter)] ?
## Result 1.7

## Task So what does the record say about N (binding stoichiometry) for C(Cam)GAWLAYPDSVPYRPK(Biotin) (also called monomer (10); monomeric peptide (10)) [CcamGA-WLA-YRPK-bio] ?
## Result 0.8

## Task So what does the record say about N (binding stoichiometry) for [βAla]WLAYPDSVPYRPKC (also: homodimer, disulfide at 15, other end not in the chain, C-terminally disulfide-linked homodimer made from monomer (19*); also called dimer (2); dimeric peptide (2)) [βA-WLA-YRPKC dimer (C-ter)] ?
## Result 2

## Task So what does the record say about N (binding stoichiometry) for CGAWLAYPDSVPYR (also: homodimer: N-terminal Cys of two chains joined by disulfide, N-terminally disulfide-linked homodimer made from monomer (15*); also called dimer (4)) [CGA-WLA-YR dimer (N-ter)] ?
## Result 2

## Task So what does the record say about N (binding stoichiometry) for CGAWLAYPDSVPYRPK (also: N-terminally disulfide-linked homodimer, disulfide at 1, other end not in the chain, also called dimer (5); dimeric peptide (5)) [CGA-WLA-YRPK dimer (N-ter)] ?
## Result 2.2
